In this section, each of the compounds is paired with its reported cell viability.
# Tested on: P12-Ichikawa
# procedure.text: cell viability relative to DMSO control; higher = less cytotoxic
# condition.summary: RPMI 5 mM glucose + 10% dialyzed FBS; 48 h; 0.00234 µM
Use % as the unit, but write only the number.

# example entries with known answers
{"compound": "OC[C@H]1OC(O)C[C@@H](O)[C@@H]1O (some centres undefined)", "cell viability [%]": 125}
{"compound": "C[C@@H]1CC[C@@]2(CC[C@]3(C)\\C(=C/C[C@@H]4[C@@]5(C)C[C@@H](O)[C@H](O)[C@@](C)(CO)[C@@H]5CC[C@@]34C)[C@@H]2[C@H]1C)C(O)=O", "cell viability [%]": 113}
{"compound": "CCc1nc(N)nc(N)c1-c1ccc(Cl)cc1", "cell viability [%]": 91.3}
{"compound": "NC[C@H](O)c1ccc(O)c(O)c1", "cell viability [%]": 96}
{"compound": "CC(C)(Sc1cc(C(C)(C)C)c(O)c(C(C)(C)C)c1)Sc1cc(C(C)(C)C)c(O)c(C(C)(C)C)c1", "cell viability [%]": 85.3}
{"compound": "CCCCCN(C)CCC(O)(P(=O)([O-])O)P(=O)(O)O", "cell viability [%]": 85.2}
{"compound": "Cc1nc2ccc(CN(C)c3ccc(C(=O)N[C@@H](CCC(=O)O)C(=O)O)s3)cc2c(=O)[nH]1", "cell viability [%]": 116}
{"compound": "COc1cc(N2CCC(N3CCN(C)CC3)CC2)ccc1Nc1ncc(Cl)c(Nc2ccccc2[S+](=O)([O-])C(C)C)n1", "cell viability [%]": 88.2}

Would you kindly look at the next entry?
Short answer for COc1ccc(-n2c(C)c([N+](=O)[O-])c3ccc(O)cc32)cc1 : cell viability was 121

----------
# System: SEM cells
# procedure.text: cell viability relative to DMSO control; higher = less cytotoxic
# condition.summary: RPMI 5 mM glucose + 10% FBS; 48 h; 46.1 µM
experimental.readout: cell viability (%)
Use % as the unit, but write only the number.

# example entries with known answers
{"compound.smiles": "OC1=C(Cl)C=C(N\\C2=C(\\C(=O)NC2=O)C3=C(C=CC=C3)[N+]([O-])=O)C=C1", "unit.descriptor": "%", "cell viability": 25.2}
{"compound.smiles": "CN1CCN(c2ncc(-c3cc(Cl)cc(Cl)c3Cl)c(N)n2)CC1", "unit.descriptor": "%", "cell viability": 132}

Lab note: compound COc1ccc(-n2c(C)c([N+](=O)[O-])c3ccc(O)cc32)cc1 tested on SEM cells; recorded cell viability was 98.5

----------
In this section, each of the compounds is paired with its reported cell viability.
# Tested on: SEM cells
# procedure.text: cell viability relative to DMSO control; higher = less cytotoxic
# condition.summary: RPMI 5 mM glucose + 10% dialyzed FBS; 48 h; 1.71 µM
Use % as the unit, but write only the number.

{"compound": "CN(C)c1ccc(-c2nc3c(N4CCN(CC(=O)Nc5nccs5)CC4)c(Cl)cnc3[nH]2)cc1", "experimental.readout": "cell viability", "experimental.value": 89.7}
{"compound": "O=C(CCCN1CCC(O)(c2ccc(Cl)cc2)CC1)c1ccc(F)cc1", "experimental.readout": "cell viability", "experimental.value": 43}

Short answer for CC1Cc2ccccc2N1NC(=O)c1ccc(Cl)c([S+](N)(=O)[O-])c1 (configuration not stated) : cell viability was 97

Short answer for Cc1cc(/C=c2/sc3nc4ccccc4n3c2=O)c(C)n1-c1ccccc1 : cell viability was 118

Short answer for COC(=O)[C@H](Cc1ccccc1)NC(=O)[C@@H](N)CC(=O)O : cell viability was 116

Short answer for COc1cc2c(cc1OC)CN(CCc1ccc(NC(=O)c3cccc4c(=O)c5cccc(OC)c5[nH]c34)cc1)CC2 : cell viability was 24.4

Short answer for Nc1ncnc2nc(-c3ccc(N4CCOCC4)nc3)cc(-c3cccc(Br)c3)c12 : cell viability was 126

----------
# System: SEM cells
# procedure.text: cell viability relative to DMSO control; higher = less cytotoxic
# condition.summary: RPMI 5 mM glucose + 10% dialyzed FBS; 48 h; 0.569 µM
Could you mark each record Met if its cell viability falls strictly under 80%, and Not met if it equals or exceeds it?

For orientation, consider the following solved cases.
{"compound": "CC(C)(C)NCC(O)c1ccc(O)c(CO)c1 (configuration not stated)", "group.label": "Not met"}
{"compound": "CN(C[C@@H]1COCCO1)[S+]([O-])(=O)NC2=CC3=C(C=C2)\\C=C/C4=C(C=C(C=N4)C5=C[N](C)N=C5)C3=O", "group.label": "Met"}
{"compound": "O=C(NOCC1CC1)c1ccc(F)c(F)c1Nc1ccc(I)cc1Cl", "group.label": "Not met"}
{"compound": "COCCCC/C(=N\\OCCN)c1ccc(C(F)(F)F)cc1", "group.label": "Not met"}
{"compound": "COC(=O)[C@H](Cc1ccccc1)NC(=O)[C@@H](N)CC(=O)O", "group.label": "Not met"}
{"compound": "CCC[C@H](Nc1nc(-c2ccc(NC(=O)NCC)c(OC)c2)ncc1C)c1cccnc1", "group.label": "Met"}

Decide: cell viability of NC[C@H](O)c1ccc(O)c(O)c1 strictly below 80%?
Not met

Decide: cell viability of CCN(CC)CCCC(C)Nc1ccnc2cc(Cl)ccc12 (configuration not stated) strictly below 80%?
Not met

Decide: cell viability of CC1(C)[C@@H](O)CC[C@@]2(C)[C@H]1CC[C@]3(C)[C@@H]2C(=O)\C=C/4[C@@H]5C[C@](C)(CC[C@]5(C)CC[C@@]34C)C(O)=O strictly below 80%?
Not met

Decide: cell viability of CNC(=O)c1nn(C)c2c1C(C)(C)Cc1cnc(Nc3ccc(N4CCN(C)CC4)cc3)nc1-2 strictly below 80%?
Met

Decide: cell viability of Clc1ccc(CCC(Cn2ccnc2)Sc2c(Cl)cccc2Cl)cc1 (configuration not stated) strictly below 80%?
Not met

----------
# Tested on: SEM cells
# procedure.text: cell viability relative to DMSO control; higher = less cytotoxic
# condition.summary: HPLM + 10% dialyzed FBS; 48 h; 0.569 µM
In this section, each of the compounds is paired with its reported cell viability.
Use % as the unit, but write only the number.

Short answer for CCN(CC)CCCC(C)Nc1ccnc2cc(Cl)ccc12 (centres undefined) : cell viability was 116

Short answer for O=C(Nc1ccccc1)Nc1ccc(-c2ccc(C(=O)[C@@H]3CCC[C@H]3C(=O)O)cc2)cc1 : cell viability was 99.8

Short answer for COc1cc(C[C@@H](CO)[C@H](CO)Cc2ccc(O)c(OC)c2)ccc1O : cell viability was 114

Short answer for c1ccc2c(CN3CCNCC3)cccc2c1 : cell viability was 108

----------
# Tested on: P12-Ichikawa
# procedure.text: AUC of viability dose-response curve (% viability x log10 dose units); higher = less sensitive
# condition.summary: RPMI 5 mM glucose + 10% dialyzed FBS; 48 h
In this section, each of the compounds is paired with its reported AUC of viability dose-response curve.
Note: the reply should be a number with no unit written.

# example entries with known answers
{"compound": "Cc1nnc(C(=O)NC(C)(C)c2nc(C(=O)NCc3ccc(F)cc3)c(O)c(=O)n2C)o1", "tgt": "P12-Ichikawa", "AUC of viability dose-response curve": 465}
{"compound": "CC(C)[C@H](C(=O)Nc1ccc(C(=O)NO)cc1)c1ccccc1", "tgt": "P12-Ichikawa", "AUC of viability dose-response curve": 350}

Lab note: compound COc1c(N2C[C@@H]3CCCN[C@@H]3C2)c(F)cc2c(=O)c(C(=O)O)cn(C3CC3)c12.Cl.O tested on P12-Ichikawa; recorded AUC of viability dose-response curve was 399

Lab note: compound OC1=CC(=C(C=C1)\C2=C(O)\C(=O)C3=C(O2)C=C(O)C=C3O)O tested on P12-Ichikawa; recorded AUC of viability dose-response curve was 443

Lab note: compound Cc1n[nH]c2ccc(-c3cncc(OC[C@@H](N)Cc4ccccc4)c3)cc12 tested on P12-Ichikawa; recorded AUC of viability dose-response curve was 355

Lab note: compound Cc1nc(-c2ccc(-c3ccc(C(=O)N4CCc5cc6c(cc54)C4(CCN(C)CC4)CO6)cc3)c(C)c2)no1 tested on P12-Ichikawa; recorded AUC of viability dose-response curve was 447

Lab note: compound COCC(=O)NC/C=C/c1ccc2ncnc(Nc3ccc(Oc4ccc(C)nc4)c(C)c3)c2c1 tested on P12-Ichikawa; recorded AUC of viability dose-response curve was 436

Lab note: compound Cc1oncc1C(=O)Nc1ccc(C(F)(F)F)cc1 tested on P12-Ichikawa; recorded AUC of viability dose-response curve was 459

Lab note: compound CN1CCN2c3ccccc3Cc3ccccc3C2C1 (configuration not stated) tested on P12-Ichikawa; recorded AUC of viability dose-response curve was 466

Lab note: compound CC(C)[C@]12O[C@H]1[C@@H]3O[C@@]34[C@@]5(C)CC\C6=C(COC6=O)/[C@@H]5C[C@@H]7O[C@]47[C@@H]2O tested on P12-Ichikawa; recorded AUC of viability dose-response curve was 62.8

Lab note: compound CC(O)(C[S+](=O)([O-])c1ccc(F)cc1)C(=O)Nc1ccc(C#N)c(C(F)(F)F)c1 (configuration not stated) tested on P12-Ichikawa; recorded AUC of viability dose-response curve was 413

Lab note: compound CCC[C@H](Nc1nc(-c2ccc(NC(=O)NCC)c(OC)c2)ncc1C)c1cccnc1 tested on P12-Ichikawa; recorded AUC of viability dose-response curve was 205
